Can you tell me log10(EC50) for the items I'm about to list?
# Assay Target: Protein kinase C (PKC)
# Protocol Text: Activation of PKC in human U1 cells infected with latent HIV-1 assessed as reversal of HIV-1 latency by measuring increase in p24 antigen level incubated for 48 hrs by chemiluminescent enzyme immunoassay
# Assay type: cell-based
# values: log10(EC50), units nM

Fill in: log10(EC50) on Protein kinase C (PKC), entry CC(C)[C@H]1C(=O)N[C@H](CO)Cc2c[nH]c3cccc(c23)N1C
2.56

Please report the measured log10(EC50) for CCCCCCCCCCc1ccc2c(c1)N(C)[C@H](C(C)C)C(=O)N[C@H](CO)CC2 tested on Protein kinase C (PKC).
3.60

With Protein kinase C (PKC) as the test system, provide measured log10(EC50) for this molecule: CCCCCCCCCCc1ccc2c(c1)N(C)[C@@H](C(C)C)C(=O)N[C@H](CO)C2
1.53

Using Protein kinase C (PKC) as the test system, report measured log10(EC50) of CCCCCCCCCCc1ccc2c(c1)N(C)[C@H](C(C)C)C(=O)N[C@H](CO)C2 .
3.37

Return reported log10(EC50) for target or system Protein kinase C (PKC), item CC(C)[C@H]1C(=O)N[C@H](CO)Cc2cc3c(cc2N1C)C(C)(C)CCC3(C)C .
4.00

---

# Protocol Text: Toxicity in human A3.01 cells assessed as reduction in cell viability after 48 hrs by WST8 assay
# Assay type: cell-based
Record form. Attribute: CC50 at 48 h. Fill in for each entry.
State the answer as a number, implicitly in µM.

Determine from records and report CC50 at 48 h for CCCCCCCCCCc1ccc2c(c1)N(C)[C@@H](C(C)C)C(=O)N[C@H](CO)C2
21.1

Name the recorded CC50 at 48 h of the compound listed here: CC(C)[C@H]1C(=O)N[C@H](CO)Cc2cc3c(cc2N1C)C(C)(C)CCC3(C)C
19.5

Using the record for CCCCCCCCCCc1ccc2c(c1)N(C)[C@H](C(C)C)C(=O)N[C@H](CO)C2 , state its measured CC50 at 48 h.
17.8

---

# Test system: U1
# Protocol Text: Induction of apoptosis in human U1 cells at 1 uM incubated for 48 hrs after pre-incubated for 2 hrs with 20 uM caspase inhibitor Q-VD-Oph by propidium iodide/annexin-V staining based flow cytometry
# Type: functional, cell-based
The source made the active and inactive calls. No cut-off for these calls is given here.
Outcome Measure: Activity

Example entries begin here.
- Molecule: "CC(=O)O[C@@]12C[C@@H](C)[C@@]3(O)[C@@H](C=C(CO)C[C@]4(O)C(=O)C(C)=C[C@@H]34)[C@@H]1C2(C)C [PROSTRATIN]"
  Recorded Measurement: "inactive"
- Molecule: "CC(C)[C@H]1C(=O)N[C@H](CO)Cc2c[nH]c3cccc(c23)N1C [INDOLACTUM]"
  Recorded Measurement: "inactive"
- Molecule: "CCCCCCCCCCc1ccc2c(c1)N(C)[C@@H](C(C)C)C(=O)N[C@H](CO)C2"
  Recorded Measurement: "inactive"
- Molecule: "CCCCCCCCCCc1ccc2c(c1)N(C)[C@H](C(C)C)C(=O)N[C@H](CO)C2"
  Recorded Measurement: "inactive"

Write down Activity measured for item CCCCCCCCCCCCCC(=O)O[C@@H]1[C@@H](C)[C@@]2(O)[C@@H](C=C(CO)C[C@]3(O)C(=O)C(C)=C[C@@H]23)[C@@H]2C(C)(C)[C@]12OC(C)=O [PHORBOL MYRISTATE ACETATE]
inactive
